Tested on: HOP-92
assayDetails: NCI tumour cell line growth inhibition, 48 h
Activity calls are given as the source filed them. Cut-off read from the data, not from the text of the source: active = GI50 up to about 1.1 µM and inactive = higher.
Give one outcome, nothing more. List: 1 = active, -1 = inactive

q: Look up the recorded call for N[C@@H]1CCN(c2c(F)cc3c(=O)c(C(=O)O)cn4c3c2Oc2c-4ccc3c2ccc2ccccc23)C1 in this test.
a: -1

q: Query: recorded result category for COc1ccc(Cc2coc3ccccc3c2=O)cc1OC in this test
a: -1

q: Hello, I am checking results. What call was entered for CCCCCCCCCCC(C(=O)O)C1(C(=O)O)CCC(=O)O1 (stereo not drawn) ?
a: -1

q: Name the outcome recorded for Nc1c([N+](=O)[O-])nc(Cl)c2nncn12 in the assay.
a: -1

q: // param item: C=C1C(=O)C23CC1C[C@H](OC(C)=O)[C@H]2C1(C)C(OC(C)=O)C[C@H](O)C(C)(C)[C@H]1C(=O)[C@@H]3OC(C)=O (stereo partly drawn) ; yields the recorded call
a: 1

q: Answer briefly: the call reported for C=CCn1c(=O)c(-c2ccccc2)c(O)c2ccccc21 in this assay.
a: -1

q: Give the logged outcome of this assay for the following compound: COC(=O)C1OC(O[C@H]2CC[C@]3(C)[C@H]4CC=C5[C@@H]6CC(C)(C)CC[C@]6(C(=O)OC6OCC(O)C(O)C6OC6OC(C)C(OC7OCC(O)C(O)C7O)C(OC7OCC(O)(CO)C7O)C6O)[C@H](O)C[C@@]5(C)[C@]4(C)CC[C@H]3C2(C)C)C(O)C(O)C1O (stereo partly drawn)
a: -1

q: Per the records of this test, what outcome belongs to COc1ccc(-c2cs/c(=N\c3ccccc3)n2CC(O)c2ccc([N+](=O)[O-])cc2)cc1 (stereo not drawn) ?
a: -1

q: Hi team, can someone confirm the assay call for Cc1nc(Nc2ccc(Cl)cc2)sc1C(=O)Nc1cccc2c(=O)[nH][nH]c(=O)c12 ?
a: -1

q: Hey, what did the test say about C=CCNC(=O)N1CC(C)C(=O)Nc2ccccc21 (stereo not drawn) ?
a: -1

q: How did this test come out for O=C(O)C1CCCCC1c1c2ccc(=O)cc-2oc2cc(O)ccc12 (stereo not drawn) ?
a: -1

q: Would you mind telling me which call this test gave COc1cccc(-c2cc(O)c3c(C)cc(C)nc3n2)c1 ?
a: -1

q: What was the test verdict on CCCCCCCCNC(=O)SCCCC ?
a: -1

* * *

System: NCI-H522
assayDetails: NCI tumour cell line growth inhibition, 48 h
Active and inactive are the calls of the source. No stated cut-off is given here; in the data, active = GI50 up to about 1.1 µM and inactive = higher.
Reply using exactly one outcome from yes (1) (active), no (0) (inactive)

q: // outcome(item) with item = CSCSSC
a: no (0)

q: GET /call?item= Cc1c2ccnc(-c3ccccc3)c2cc2c1[nH]c1ccccc12 returns the recorded outcome of this test.
a: no (0)

q: Outcome? COc1ccc(/C=C/c2cc(OC)c(OC)c(OC)c2)cc1O[Si](C)(C)C(C)(C)C
a: no (0)

q: What outcome does the record of this test show for CCOP(=O)(C/C(=N/NC(C)(C)C)C(=O)Nc1nc2ccc(C)cc2s1)OCC ?
a: no (0)

q: // return assay outcome for Cc1ccccc1/N=N/c1cc(C)c(/N=N/c2c(O)ccc3ccccc23)cc1C
a: no (0)

q: Record request — test call for O=C(c1ccc(O)cc1)C1c2c3c(cc(O)c2C(c2ccc(O)cc2)C1c1cc(O)cc(O)c1)OC(c1ccc(O)cc1)C3c1cc2c(cc1O)OC(c1ccc(O)cc1)C2c1cc(O)cc(O)c1 (stereo not given)
a: no (0)

q: Please indicate how the test categorized CCCCN1/C(=N/Nc2n[nH]c(=O)c3ccccc23)SCC1c1ccc(Cl)cc1 (stereo not given) .
a: no (0)

q: Please state the recorded outcome for this compound: CCCCc1c(O)nc(Nc2nc3ccccc3[nH]2)[nH]c1=O
a: no (0)

q: Hi team, can someone confirm the assay call for CCCCCCCCC[n+]1cccc(C2C(C(=O)OCC)=C(C)NC(C)=C2C(=O)OCC)c1 ?
a: no (0)

q: Just curious, what result did CSC(SC)(C(=O)O)c1cc(-c2c(Cl)cccc2Cl)no1 get here?
a: no (0)

q: Given CC(CN1NC12CCCC2)N1NC12CCCC2 (stereo not given) , state the outcome it received in this test.
a: no (0)

q: Assay outcome for N[C@@H]1CCN(c2c(F)cc3c(=O)c(C(=O)O)cn4c3c2Oc2c-4ccc3c2ccc2ccccc23)C1 : what was it?
a: no (0)

q: Call for entry CC(=O)OCC1OC(Sc2nc(-c3ccc(C)cc3)c(C#N)c(=O)n2C2OC(COC(C)=O)C(OC(C)=O)C(OC(C)=O)C2OC(C)=O)C(OC(C)=O)C(OC(C)=O)C1OC(C)=O (stereo not given) :
a: no (0)

q: What call does the record list for CCOC(=O)/C(=C/c1ccc(C#N)cc1)N(CC)CC ?
a: no (0)

q: Recorded test outcome, item O=[PH]1c2ccccc2Nc2ccccc21
a: no (0)

q: // return assay outcome for Cn1ccnc1Sc1ccc(/C=N\NC(=O)c2cccc(F)c2)cc1[N+](=O)[O-]
a: no (0)

q: Identify the outcome logged in this assay for the compound shown: COc1ccc2[nH]c3ccc4cc[n+](CCN5CCC(C6CCN(CC[n+]7ccc8ccc9[nH]c%10ccc(OC)cc%10c9c8c7)CC6)CC5)cc4c3c2c1
a: yes (1)

q: Any idea what this test logged for CC1(C)S[C@@H]2[C@H](NC(=O)[C@H](N)c3ccccc3)C(=O)N2[C@H]1C(=O)O [AMPICILLIN] ?
a: no (0)

q: What was the test verdict on N#C/C(=C\c1ccc(O)cc1O)C(N)=O ?
a: no (0)

q: What did this assay record as the result for COC(=O)[C@H]1CO[C@H]2C/C(C)=C/CC/C(C)=C/CC[C@@]3(C)O[C@@H]3C[C@H]21 ?
a: no (0)
